Data provenance: patent US20240208954A1

- Method: Preliminary assessment of pharmacokinetics in mice
- Format: in vivo, CD-1 mice
- Study conditions: male, CD-1, mouse, plasma, po, 2 mg/kg, title: oral 2 mg/kg; 0.25 h; mean; read-out: Concentration of A1 Drug in Plasma of Mice
Property name: concentration at 0.25 h (ng/mL)

{"Compound structure string": "CC(C)Oc1ccc(-c2nc(-c3ccc(CN4CC(C(=O)O)C4)c4ccccc34)no2)cc1C#N.Cl", "Result units": "ng/mL", "Numeric value": 878}

* * *

- Method: Preliminary evaluation of pharmacokinetics in Beagle dogs
- Assay type: in vivo
- Study conditions: beagle, dog, plasma, oral, 3 mg/kg, intragastric 3 mg/kg; 0.5 h; mean; read-out: Plasma drug concentration in Beagle dogs
Property name: concentration at 0.5 h (ng/mL)

{"Molecule": "CC(C)Oc1ccc(-c2nc(-c3ccc(CN4CC(C(=O)O)C4)c4ccccc34)no2)cc1C#N.Cl [Compound A1]", "Numeric value": 262}

* * *

- Method: Preliminary evaluation of pharmacokinetics in Beagle dogs
- Assay type: in vivo
- Study conditions: beagle, dog, plasma, iv, 0.5 mg/kg, intravenous 0.5 mg/kg; 6 h; mean; read-out: Plasma drug concentration in Beagle dogs

{"Compound": "CC(C)Oc1ccc(-c2nc(-c3ccc(CN4CC(C(=O)O)C4)c4ccccc34)no2)cc1C#N.Cl [Compound A1]", "concentration at 6 h": "2.21 ng/mL"}

* * *

- Method: Preliminary assessment of pharmacokinetics in mice
- Assay type: in vivo, CD-1 mice
- Study conditions: male, CD-1, mouse, plasma, intraperitoneal, 20 mg/kg, title: intraperitoneal 20 mg/kg; 2.00 h; mean; read-out: Concentration of A1 Drug in Plasma of Mice
Property name: concentration at 2 h (ng/mL)

{"Compound structure string": "CC(C)Oc1ccc(-c2nc(-c3ccc(CN4CC(C(=O)O)C4)c4ccccc34)no2)cc1C#N.Cl", "Property name": "concentration at 2 h", "Numeric value": 1180}

* * *

- Method: Preliminary evaluation of pharmacokinetics in Beagle dogs
- Assay type: in vivo
- Study conditions: beagle, dog, plasma, iv, 0.5 mg/kg, intravenous 0.5 mg/kg; 4 h; mean; read-out: Plasma drug concentration in Beagle dogs

{"Compound structure string": "CC(C)Oc1ccc(-c2nc(-c3ccc(CN4CC(C(=O)O)C4)c4ccccc34)no2)cc1C#N.Cl", "concentration at 4 h / ng/mL": 9.39}

* * *

- Method: Preliminary assessment of in vivo pharmacokinetics in rats
- Study conditions: rat, in vivo, po; rats; intragastric 20 mg/kg; mean; read-out: AUC0-t

{"Compound": "CC(C)Oc1ccc(-c2nc(-c3ccc(CN4CC(C(=O)O)C4)c4ccccc34)no2)cc1C#N.Cl [Compound A1]", "Result units": "ng·h/mL", "AUC0-t": 8780}

* * *

- Method: Preliminary assessment of in vivo pharmacokinetics in rats
- Study conditions: rat, in vivo, po; rats; intragastric 20 mg/kg; individual animals 4-6; read-out: Tmax
Property name: Tmax (h)

{"Compound structure string": "CC(C)Oc1ccc(-c2nc(-c3ccc(CN4CC(C(=O)O)C4)c4ccccc34)no2)cc1C#N.Cl", "Property name": "Tmax", "Result units": "h", "Numeric value": 1}

* * *

- Method: Preliminary evaluation of pharmacokinetics in Beagle dogs
- Assay type: in vivo
- Study conditions: beagle, dog, plasma, iv, 0.5 mg/kg, Beagle dogs; intravenous 0.5 mg/kg; mean

{"Compound structure string": "CC(C)Oc1ccc(-c2nc(-c3ccc(CN4CC(C(=O)O)C4)c4ccccc34)no2)cc1C#N.Cl", "Result units": "ng·h/mL", "AUC(0-inf)": 360}
